Species on record: Rattus norvegicus
protocol.notes: Open TG-GATES - Regimen: Daily Repeat
Assay type: toxicity, organism-based, Sprague-Dawley
Parameters: regimen Daily Repeat, gender Male, age 6 weeks
measurement.context: in vivo, po, 300 mg/kg, […], tissue Blood, route gavage, dose level Middle, time 14 day
quantity.name: Plat (x10_4/uL)
Quick reminder: number only, in x10_4/uL, skip the unit.

Below, each entry is followed by its recorded Plat result.
CC(=O)[C@@]1(O)CC[C@H]2[C@@H]3C=C(Cl)C4=CC(=O)CC[C@]4(C)[C@H]3CC[C@@]21C [CHLORMADINONE]; 105.8
O=C(O)c1ccccc1Nc1ccccc1 [FENAMIC ACID]; 131.5
CCCCNC(=O)NS(=O)(=O)c1ccc(C)cc1 [TOLBUTAMIDE]; 120.3

Could you now look at the following compound, please?
The reported Plat of the compound CC(S)C(=O)NCC(=O)O (centres undefined) [TIOPRONIN] was 109.8

###

Organism: Rattus norvegicus
protocol.notes: Open TG-GATES - Regimen: Daily Repeat
Type: toxicity, organism-based, Sprague-Dawley
Parameters: regimen Daily Repeat, gender Male, age 6 weeks
measurement.context: in vivo, po, 0 mg/kg, 72 h, tissue Plasma, route gavage, dose level Control, time 3 day
quantity.name: GLC
Give me the value, and tack the unit on after it.

Answered examples (5):
COc1ccc([C@@H]2Sc3ccccc3N(CCN(C)C)C(=O)[C@@H]2OC(C)=O)cc1; 177.4 mg/dL
O=C(O)c1ccccc1Nc1ccccc1; 185.8 mg/dL
CCN(CC)C(=S)SSC(=S)N(CC)CC; 192.2 mg/dL
Nc1ccc(Cc2ccc(N)cc2)cc1; 177.2 mg/dL
CC(S)C(=O)NCC(=O)O (stereo unspecified); 202 mg/dL

Let's switch to this molecule now.
Input `CCCCC1C(=O)N(c2ccccc2)N(c2ccccc2)C1=O` . Output GLC: 195.2 mg/dL

###

Species on record: Rattus norvegicus
protocol.notes: Open TG-GATES - Regimen: Daily Repeat
Format: toxicity, organism-based, Sprague-Dawley
Set-up: regimen Daily Repeat, gender Male, age 6 weeks
measurement.context: in vivo, po, 100 mg/kg, […], tissue Kidney, route gavage, dose level Low, time 7 day
quantity.name: KIDNEY_TOTAL (g)
Express the result in g but write the number alone.

CCCCNC(=O)NS(=O)(=O)c1ccc(C)cc1 [TOLBUTAMIDE]; 2.3
CC(=O)[C@@]1(O)CC[C@H]2[C@@H]3C=C(Cl)C4=CC(=O)CC[C@]4(C)[C@H]3CC[C@@]21C [CHLORMADINONE]; 2.2
CC(S)C(=O)NCC(=O)O (centres undefined) [TIOPRONIN]; 2.2

Please find the next compound below.
Quick note, KIDNEY_TOTAL for O=C(O)c1ccccc1Nc1ccccc1 [FENAMIC ACID] landed at 2.3

###

Species: Rattus norvegicus
protocol.notes: Open TG-GATES - Regimen: Daily Repeat
Assay type: toxicity, organism-based, Sprague-Dawley
Design: regimen Daily Repeat, gender Male, age 6 weeks
measurement.context: in vivo, po, 300 mg/kg, 72 h, tissue Plasma, route gavage, dose level Middle, time 3 day
quantity.name: Cl (meq/L)
Return type: number; implicit unit meq/L.

Example results:
O=C(O)c1ccccc1Nc1ccccc1; 105.8
CCCCNC(=O)NS(=O)(=O)c1ccc(C)cc1 [TOLBUTAMIDE]; 105
CC(S)C(=O)NCC(=O)O (centres undefined); 105.8

Proceed to the following item.
Entry under test: `CC(=O)[C@@]1(O)CC[C@H]2[C@@H]3C=C(Cl)C4=CC(=O)CC[C@]4(C)[C@H]3CC[C@@]21C` . Its Cl was 106
